Recorded koff, one value per entry.
tested-on: Human BCMA (human) (UniProt Q02223)
experiment-notes: SPR, IgG on chip, huBCMA analyte

binder	koff / s⁻¹
C01_Rd4_6nM_C04 (antibody, V domains shown, IgG) VH: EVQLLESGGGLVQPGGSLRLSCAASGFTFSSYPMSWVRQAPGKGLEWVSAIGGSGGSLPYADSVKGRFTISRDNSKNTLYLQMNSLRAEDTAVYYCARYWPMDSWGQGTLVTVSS VL: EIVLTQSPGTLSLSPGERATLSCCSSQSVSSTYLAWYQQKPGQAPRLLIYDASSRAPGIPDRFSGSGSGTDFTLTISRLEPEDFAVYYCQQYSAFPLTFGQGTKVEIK	0.0497
C01_Rd4_6nM_C10 (antibody, V domains shown, IgG) VH: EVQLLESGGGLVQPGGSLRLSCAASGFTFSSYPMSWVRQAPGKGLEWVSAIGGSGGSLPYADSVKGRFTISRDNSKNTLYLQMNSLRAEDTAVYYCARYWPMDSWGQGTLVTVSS VL: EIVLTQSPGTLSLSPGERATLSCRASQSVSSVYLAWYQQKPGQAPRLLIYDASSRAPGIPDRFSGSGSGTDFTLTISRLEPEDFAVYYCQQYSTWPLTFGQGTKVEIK	0.00212
A02_Rd4_6nM_C04 (antibody, V domains shown, IgG) VH: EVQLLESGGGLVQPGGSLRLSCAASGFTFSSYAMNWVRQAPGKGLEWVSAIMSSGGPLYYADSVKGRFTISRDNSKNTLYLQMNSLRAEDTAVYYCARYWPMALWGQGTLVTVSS VL: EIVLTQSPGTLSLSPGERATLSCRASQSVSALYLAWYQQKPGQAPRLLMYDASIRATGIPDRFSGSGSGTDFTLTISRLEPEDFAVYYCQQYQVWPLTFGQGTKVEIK	0.000603
COMBO_Rd4_0.6nM_C22 (antibody, V domains shown, IgG; also called COM22) VH: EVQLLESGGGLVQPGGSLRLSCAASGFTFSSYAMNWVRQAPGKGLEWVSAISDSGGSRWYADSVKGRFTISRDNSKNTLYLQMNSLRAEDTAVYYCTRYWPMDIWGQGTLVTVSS VL: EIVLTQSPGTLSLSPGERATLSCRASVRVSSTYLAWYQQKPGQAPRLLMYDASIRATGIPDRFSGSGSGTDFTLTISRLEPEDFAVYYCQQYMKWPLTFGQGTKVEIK	7.15e-05
A02_Rd4_6nM_C05 (antibody, V domains shown, IgG) VH: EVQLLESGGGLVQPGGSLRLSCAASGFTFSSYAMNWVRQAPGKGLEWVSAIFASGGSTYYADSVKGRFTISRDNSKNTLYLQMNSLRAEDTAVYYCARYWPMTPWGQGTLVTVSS VL: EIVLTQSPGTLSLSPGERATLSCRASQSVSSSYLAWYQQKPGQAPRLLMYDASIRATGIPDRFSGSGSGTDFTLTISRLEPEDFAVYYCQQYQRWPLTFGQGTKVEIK	0.000308

Where do the numbers come from? From patent US20190241669A1.
